EXPERIMENT_DESCRIPTION: Phase I DDI study Part 1: tazemetostat plasma PK alone and with itraconazole (noncompartmental analysis)
Format: in vivo, human
CONDITION: human, plasma, oral, 400 mg, Part 1; tazemetostat 400 mg twice daily alone, multiple dosing, Day 15; plasma; read-out: AUC0‐12 h, mean (SD)
From the text: This was a Phase I, multicenter, open‐label, 2‐part study encompassing a fixed‐sequence design that aimed to characterize the PK of tazemetostat when administered as single and twice‐daily oral doses alone or in combination with either itraconazole (Part 1) or rifampin (Part 2). […] Part 1 of the study evaluated the DDI between tazemetostat and itraconazole. […]
TEST_READOUT: AUC (ng·h/mL)
Answer format: numeric, ng·h/mL implied, no suffix.

Request: Look up AUC: CCN(c1cc(-c2ccc(CN3CCOCC3)cc2)cc(C(=O)NCc2c(C)cc(C)[nH]c2=O)c1C)C1CCOCC1 [Tazemetostat]
Response: 1960

###

EXPERIMENT_DESCRIPTION: Phase I DDI study Part 1: tazemetostat plasma PK alone and with itraconazole (noncompartmental analysis)
Assay type: in vivo, human
CONDITION: human, plasma, oral, Part 1; tazemetostat 400 mg single dose with itraconazole 200 mg once daily, Day 21; plasma; read-out: AUC0‐12 h, mean (SD)
TEST_READOUT: AUC (ng·h/mL)
Answer format: numeric, ng·h/mL implied, no suffix.

Request: Look up AUC: CCN(c1cc(-c2ccc(CN3CCOCC3)cc2)cc(C(=O)NCc2c(C)cc(C)[nH]c2=O)c1C)C1CCOCC1
Response: 8000

###

EXPERIMENT_DESCRIPTION: Phase I DDI study Part 2: tazemetostat plasma PK alone and with rifampin (noncompartmental analysis)
Format: in vivo, human
CONDITION: human, plasma, po, 800 mg, Part 2; tazemetostat 800 mg oral single dose alone, Day 1; plasma; read-out: t1/2, mean (SD) (converted)
TEST_READOUT: half-life (h)
Answer format: numeric, h implied, no suffix.

Request: Look up half-life: CCN(c1cc(-c2ccc(CN3CCOCC3)cc2)cc(C(=O)NCc2c(C)cc(C)[nH]c2=O)c1C)C1CCOCC1 [Tazemetostat]
Response: 6.49

###

EXPERIMENT_DESCRIPTION: Phase I DDI study Part 1: tazemetostat plasma PK alone and with itraconazole (noncompartmental analysis)
Assay type: in vivo, human
CONDITION: human, plasma, oral, Part 1; tazemetostat 400 mg single dose with itraconazole 200 mg once daily, Day 21; plasma; read-out: Cmax, GeoMean (CV%)
TEST_READOUT: Cmax (ng/mL)
Answer format: numeric, ng/mL implied, no suffix.

Request: Look up Cmax: CCN(c1cc(-c2ccc(CN3CCOCC3)cc2)cc(C(=O)NCc2c(C)cc(C)[nH]c2=O)c1C)C1CCOCC1 [Tazemetostat]
Response: 1400

###

EXPERIMENT_DESCRIPTION: Phase I DDI study Part 2: tazemetostat plasma PK alone and with rifampin (noncompartmental analysis)
Assay type: in vivo, human
CONDITION: human, plasma, oral, Part 2; tazemetostat 800 mg multiple dosing with rifampin 600 mg once daily, Day 24; plasma; read-out: t1/2, mean (SD) (converted)
TEST_READOUT: half-life (h)
Answer format: numeric, h implied, no suffix.

Request: Look up half-life: CCN(c1cc(-c2ccc(CN3CCOCC3)cc2)cc(C(=O)NCc2c(C)cc(C)[nH]c2=O)c1C)C1CCOCC1
Response: 5.06
